All figures here come from patent US20140213531A1.

target: Chymotrypsin, from human pancreas (human, UniProt P17538 19-263); assay: cell-based or functional assay
Sequence (P17538 19-263): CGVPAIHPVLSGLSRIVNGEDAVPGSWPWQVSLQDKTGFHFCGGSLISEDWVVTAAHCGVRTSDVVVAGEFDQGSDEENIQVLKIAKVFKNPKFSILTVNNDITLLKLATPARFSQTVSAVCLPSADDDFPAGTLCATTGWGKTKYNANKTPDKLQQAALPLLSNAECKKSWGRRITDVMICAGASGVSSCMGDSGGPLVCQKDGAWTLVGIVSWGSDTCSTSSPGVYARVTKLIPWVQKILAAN
reported property: % inhibition at 100 µM (%)
One number for each entry, in %.

Record summary for ICTKSDPPYCR (HELM PEPTIDE1{I.C.T.K.S.D.P.P.Y.C.R.[dP].P}$PEPTIDE1,PEPTIDE1,2:R3-10:R3|PEPTIDE1,PEPTIDE1,1:R1-13:R2$$$V2.0; SMILES CC[C@H](C)[C@@H]1NC(=O)[C@@H]2CCCN2C(=O)[C@H]2CCCN2C(=O)[C@H](CCCNC(=N)N)NC(=O)[C@@H]2CSSC[C@H](NC1=O)C(=O)N[C@@H]([C@@H](C)O)C(=O)N[C@@H](CCCCN)C(=O)N[C@@H](CO)C(=O)N[C@@H](CC(=O)O)C(=O)N1CCC[C@H]1C(=O)N1CCC[C@H]1C(=O)N[C@@H](Cc1ccc(O)cc1)C(=O)N2) [Example 56] : reported % inhibition at 100 µM = 25
